Each entry below carries its reported growth.
# Tested on: HCT-15 colon
# EXPERIMENT_DESCRIPTION: NCI-60 one-dose screen, 48 h (100 = growth as untreated, 0 = no growth, -100 = all killed)
# ASSAY_CONTEXT: 10 µM unless noted
The panel holds about 83,000 compounds, 20% with a hit somewhere; the sample as a whole holds those more often.
Output spec: scalar in %, unitless text.

These solved cases illustrate the format of a correct answer.
N#CCC1=NC(c2cccs2)=Nc2ccccc2S1 :: 109
NC(=O)c1c(NC(=O)c2ccc(Cl)cc2)sc2c1CCC(=O)C2 :: 63.5
Nc1c(C(=O)Nc2cccc3ncccc23)sc2nc3c(cc12)C(=O)CCC3 :: 52.9
Cn1cc(-c2nonc2-c2c[nH]c3ccc(F)cc23)c2cc(Br)ccc21 :: 30.4
O=C1Nc2ccc(F)cc2/C1=N/c1nnc(Sc2ccccc2)s1 :: 98.3

Request: Answer with reported growth of `Fc1ccc(CNc2c3ccccc3nc3ccccc23)cc1`
Result: 17.6

Request: Answer with reported growth of `CN(C)c1ccc(-c2cc(-c3ccc(Nc4nc(Nc5ccc(Cl)cc5)nc(Nc5ccc(Cl)cc5)n4)cc3)nc(N)c2C#N)cc1`
Result: 75.9

Request: Answer with reported growth of COc1cc2c(c(OC)c1OC)C(=O)CC(c1cccc(NC(=O)c3ccccc3Br)c1)O2 (stereo unspecified)
Result: 88.6

Request: Answer with reported growth of `CCCCCCOC(=O)CC1=C(C)/C(=C/c2[nH]c(-c3ccc[nH]3)cc2OC)N=C1C`
Result: -34.9

Request: Answer with reported growth of `CCCCCCCC/C=C\CCCCCCCCOc1ccccc1CC(=O)NCC[N+]1(C)CCCCC1`
Result: 102

Request: Answer with reported growth of `CC/C=C\C/C=C/C=C1/C(=O)C=C[C@@H]1C/C=C\CCCC(=O)OC`
Result: 4.13
